Listed here are compounds together with their documented pIC50.
biological target: Glycogen synthase kinase-3 alpha/beta (Sus scrofa); experiment: Kinase activities were assayed in buffers containing substrate, enzyme, and inhibitor at 30 °C in the presence of 15 uM ATP/ [gamma-32P] ATP. 32P incorporation was measured with a scintillation counter. The IC50 is the inhibitor concentration, which inhibits 50% of kinase activity that catalyzes the transfer of the terminal phosphate from 32P l
Lab note: report pIC50 as minus log10 of the concentration in molar units, number only.

Recorded results for 10 compounds are shown here.
| compound | pIC50 |
| --- | --- |
| O=C1Nc2cc(Cl)c(Cl)cc2/C1=C1/Nc2ccccc2C1=O [(2 Z)-5,6-Dichloroindirubin] | 7.52 |
| CO/N=C1/C(=C2/C(=O)Nc3cc(Br)ccc32)Nc2ccccc21 [(2 Z,3 E)-6-Bromoindirubin-3-methoxime] | 7.52 |
| C=Cc1ccc2c(c1)NC(=O)/C2=C1\Nc2ccccc2C1=O [6-vinylindirubin] | 6.62 |
| C=Cc1ccc2c(c1)NC(=O)C2c1[nH]c2ccccc2c1N=O (stereo not drawn) [6-vinylindirubin-3-oxime] | 7.22 |
| CC(=O)ON=C1C(=C2C(=O)Nc3cc(Cl)ccc32)Nc2ccccc21 [6-chloroindirubin-3-acetoxime] | 7.77 |
| O=C1Nc2cc(Br)c([N+](=O)[O-])cc2[C+]1c1[nH]c2ccccc2c1[O-] [6-Bromo-5-nitroindirubin] | 7.00 |
| C=Cc1ccc2c(c1)NC(=O)C2=C1Nc2ccccc2C1=NOC(C)=O | 7.19 |
| O=Nc1c(C2C(=O)Nc3cc(Br)ccc32)[nH]c2cc(Br)ccc12 (stereo not drawn) | 6.92 |
| CC(=O)ON=C1C(=C2C(=O)Nc3cc(I)ccc32)Nc2ccccc21 [(2 Z,3 E)-6-Iodoindirubin-3-acetoxime] | 7.89 |
| Cc1cc2c(cc1Br)NC(=O)/C2=C1\Nc2ccccc2C1=O [6-bromo-5-methylindirubin] | 7.60 |

Please look at the following compound next.
QUERY: Return pIC50 measured with Glycogen synthase kinase-3 alpha/beta (Sus scrofa) given this compound: O=C1Nc2cc(I)ccc2/C1=C1/Nc2ccccc2C1=O [6-iodoindirubin]
RESULT: 7.26
